Let's look at some compounds and their measured log10 of IC75.
target: Na+-dependent bile acid transport system (Oryctolagus cuniculus, UniProt Q28727)
Construct: brush-border membrane vesicles from the ileum of rabbits; from tissue; host or cells: terminal ileum of male New Zealand rabbits, brush-border membrane vesicles
Sequence (Q28727 1-347): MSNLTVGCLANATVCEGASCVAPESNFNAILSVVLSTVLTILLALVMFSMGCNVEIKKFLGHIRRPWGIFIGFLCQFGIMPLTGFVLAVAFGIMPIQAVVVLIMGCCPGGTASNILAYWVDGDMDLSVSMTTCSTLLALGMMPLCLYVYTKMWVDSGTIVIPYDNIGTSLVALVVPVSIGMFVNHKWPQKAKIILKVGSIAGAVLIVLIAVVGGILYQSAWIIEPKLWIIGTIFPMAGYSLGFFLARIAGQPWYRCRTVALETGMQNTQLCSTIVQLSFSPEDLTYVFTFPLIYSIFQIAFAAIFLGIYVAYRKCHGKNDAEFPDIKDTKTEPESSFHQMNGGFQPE
protocol summary: Inhibition of Na+-dependent [3H]taurocholate absorption into brush-border membrane vesicles of the ileum
Assay type: biochemical, rabbit
Structures can show the parent of a compound that is named as a salt.
Give log10 of IC75, with IC75 taken in µM.

Below, each entry is followed by its recorded log10 of IC75 result.
compound	reported measurement
CC(C)c1cc(Sc2ccc(F)cc2)cc(-c2ccc(F)cc2)c1OC[C@@H](O)C[C@@H](O)CC(=O)NCCO[C@H]1CC[C@@]2(C)[C@@H](C1)C[C@@H](O)[C@@H]1[C@@H]2C[C@H](O)[C@]2(C)[C@@H]([C@H](C)CCC(=O)O)CC[C@@H]12 [Example 93]	1.36
CC(C)c1cc(-c2ccc(F)cc2)c(OC[C@@H](O)C[C@@H](O)CC(=O)NCCO[C@H]2CC[C@@]3(C)[C@@H](C2)C[C@@H](O)[C@@H]2[C@@H]3C[C@H](O)[C@]3(C)[C@@H]([C@H](C)CCC(=O)NCCS(=O)(=O)O)CC[C@@H]23)c(C(C)C)c1 [Example 111]	1.59
CC(C)c1nc(-c2ccccc2)cc(-c2ccc(F)cc2)c1/C=C/[C@@H](O)C[C@@H](O)CC(=O)NCCO[C@H]1CC[C@@]2(C)[C@@H](C1)C[C@@H](O)[C@@H]1[C@@H]2C[C@H](O)[C@]2(C)[C@@H]([C@H](C)CCC(=O)NCC(=O)O)CC[C@@H]12 [Example 105]	1.65
C[C@H](CCC(=O)O)[C@H]1CC[C@H]2[C@@H]3[C@H](O)C[C@@H]4C[C@@H](OCCNC(=O)[C@@H](C)NC(=O)[C@@H](C)N)CC[C@]4(C)[C@H]3C[C@H](O)[C@]12C [Example 121, H-D-Ala-D-Ala-NH--(CH2)2 --GS--OH]	2.24
CC(C)c1cc(-c2ccc(F)cc2)c(OC[C@@H](O)C[C@@H](O)CC(=O)NCCO[C@H]2CC[C@@]3(C)[C@@H](C2)C[C@@H](O)[C@@H]2[C@@H]3C[C@H](O)[C@]3(C)[C@@H]([C@H](C)CCC(=O)O)CC[C@@H]23)c(C(C)C)c1 [Example 81]	1.81

[Q] For CC(C)c1nc(-c2ccccc2)cc(-c2ccc(F)cc2)c1/C=C/[C@@H](O)C[C@@H](O)CC(=O)NCCO[C@H]1CC[C@@]2(C)[C@@H](C1)C[C@@H](O)[C@@H]1[C@@H]2C[C@H](O)[C@]2(C)[C@@H]([C@H](C)CCC(=O)NCCS(=O)(=O)O)CC[C@@H]12 [Example 115 (Na salt)] , what is its reported log10 of IC75?
[A] 1.64

[Q] // query log10 of IC75 value for entry C[C@H](CCC(=O)O)[C@H]1CC[C@H]2[C@@H]3[C@H](O)C[C@@H]4C[C@@H](OCCNC(=O)[C@@H](C)NC(=O)[C@@H](C)NC(=O)OCc5ccccc5)CC[C@]4(C)[C@H]3C[C@H](O)[C@]12C [Example 122, Z-D-Ala-D-Ala-NH--(CH2)2 --GS--OH]
[A] 2.37
